Recorded half-life for the following compounds
MEASUREMENT NOTES: Half life of hydrolysis rate in RPMI-1640 medium at pH 8.0
Assay type: ADME
Reply numerically in h, unit not repeated.

[
  {
    "COMPOUND": "CN(Cc1cnc2nc(N)nc(N)c2n1)c1ccc(C(=O)NC(CCP(=O)(O)CC(CCC(=O)OCOC(=O)C(C)(C)C)C(=O)OCOC(=O)C(C)(C)C)C(=O)OCOC(=O)C(C)(C)C)cc1 (configuration not stated)",
    "half-life (h)": 3
  }
]

Please examine the following record next.
## Input For COP(=O)(CCC(NC(=O)c1ccc(N(C)Cc2cnc3nc(N)nc(N)c3n2)cc1)C(=O)OCOC(=O)C(C)(C)C)CC(CCC(=O)OCOC(=O)C(C)(C)C)C(=O)OCOC(=O)C(C)(C)C (configuration not stated) , what is its reported half-life?
## Output 1

Taken from ChEMBL document CHEMBL1147726.
